biological target: HSH2D (Homo sapiens, UniProt Q96JZ2); construct: the DNA-tagged SH2 domain concentrations used in this study were <0.1 nM; made in house; host or cells: HEK293 (transient transfection, unpurified extract); assay: biochemical; assay type: binding; conditions: primary screen, 10 μM; read-out: percent of DMSO vehicle control
Sequence (Q96JZ2 34-125 limits assumed): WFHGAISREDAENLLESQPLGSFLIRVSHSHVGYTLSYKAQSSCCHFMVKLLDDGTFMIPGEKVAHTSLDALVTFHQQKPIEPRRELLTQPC
Quantity Name: remaining activity at 10 µM (%)
Entry rule: numbers only, all in %.

I would be grateful if you could share the reported remaining activity at 10 µM for `C/C(=C\C(=O)N[C@H](C(=O)N1CCC[C@H]1C(=O)N(c1ccccc1)c1ccc(I)cc1)C(C)(C)C)c1ccc(OP(=O)(O)O)cc1` .
14.6

I would be grateful if you could share the reported remaining activity at 10 µM for `O=C(COc1ccc2cc(C(=O)Nc3ccccc3)ccc2c1)NCc1ccc(OP(=O)(O)O)c(OP(=O)(O)O)c1` .
27.1

I would be grateful if you could share the reported remaining activity at 10 µM for `CC(C)(C)[C@H](NC(=O)/C=C/c1ccc(OP(=O)(O)O)cc1)C(=O)N1CCC[C@H]1C(=O)N(c1ccccc1)c1ccc(I)cc1` .
19.6

I would be grateful if you could share the reported remaining activity at 10 µM for `O=C(CCl)Nc1cccc(CNC(=O)[C@H](Cc2ccc(OP(=O)(O)O)cc2)NC(=O)Cc2ccc(F)cc2)c1` .
3
